Please provide measured EC50 for the entries that follow.
# System: P388
# ASSAY_OVERVIEW: Cytotoxicity against mouse P388 cells after 3 days by sulforhodamine B assay
# Assay type: functional
# CONDITION_PARAMETERS: P388, 72 h, read-out: ED50 (the source's name)
One number for each entry, in µg/mL.

CO[C@H]1C=C[C@@]23c4cc5c(cc4CN(C[C@@H]2O)[C@H]3C1)OCO5 :: 0.7

Return reported EC50 values for all items listed beneath this line.
1. CO[C@@H]1C[C@H]2N3CC[C@@]2(c2cc4c(cc2C3)OCO4)[C@H]2O[C@@H]12
2. O[C@H]1[C@H]2c3cc4c(cc3CN3CCC(=C[C@@H]1O)[C@H]23)OCO4

1: 0.6; 2: 0.9
